I'd appreciate it if you could supply Drug uptake values for the items below.
System: Rattus norvegicus
Assay: Biodistribution in Sprague-Dawley rat fat at 14.8 to 18.5 MBq, iv measured at 5 mins post-injection by gamma counting analysis
Assay type: ADME, organism-based, Adipose tissue
Conditions: in vivo
Express it in % ID/g; write the number only.

Per the records, this compound ( `Cn1ncc(-c2ccncc2)c1-c1ccc(OCc2cc(O[11CH3])c3ccccc3n2)cc1` ) has Drug uptake equal to 0.066

Notebook: `Cn1cc(-c2ccncc2)c(-c2ccc(OCc3nc4ccccc4cc3O[11CH3])cc2)n1` , Drug uptake read as 0.935

Short answer for `Cn1cc(-c2ccncc2)c(-c2ccc(OCc3ccc4cc(O[11CH3])ccc4n3)cc2)n1` : Drug uptake was 0.139

Note to self: Drug uptake recorded for `Cn1cc(-c2ccncc2)c(-c2ccc(OCc3cc(O[11CH3])c4ccccc4n3)cc2)n1` was 0.242

* * *

System: Lung
Assay: Biodistribution in Sprague-Dawley rat lung at 14.8 to 18.5 MBq, iv measured at 5 mins post-injection by gamma counting analysis
Type: ADME, organism-based
Conditions: in vivo
assay.metric: Drug uptake
Answer format: value, then unit.

Observed Drug uptake, Lung, `Cn1cc(-c2ccncc2)c(-c2ccc(OCc3nc4ccccc4cc3O[11CH3])cc2)n1` : 1.602 % ID/g

Query `Cn1cc(-c2ccncc2)c(-c2ccc(OCc3cc(O[11CH3])c4ccccc4n3)cc2)n1` on Lung; Drug uptake returned: 0.89 % ID/g

Observed Drug uptake, Lung, `Cn1ncc(-c2ccncc2)c1-c1ccc(OCc2cc(O[11CH3])c3ccccc3n2)cc1` : 0.643 % ID/g

Summary line: `Cn1cc(-c2ccncc2)c(-c2ccc(OCc3ccc4cc(O[11CH3])ccc4n3)cc2)n1` , Lung, reported Drug uptake = 0.744 % ID/g

* * *

Tested on: Muscle tissue
Assay: Biodistribution in Sprague-Dawley rat muscle at 14.8 to 18.5 MBq, iv measured at 5 mins post-injection by gamma counting analysis
Type: ADME, organism-based
Conditions: in vivo
Answer each item with its documented Drug uptake.
// note: answer is a bare numeric in % ID/g

Input `Cn1cc(-c2ccncc2)c(-c2ccc(OCc3nc4ccccc4cc3O[11CH3])cc2)n1` . Output Drug uptake: 0.412

For `Cn1cc(-c2ccncc2)c(-c2ccc(OCc3ccc4cc(O[11CH3])ccc4n3)cc2)n1` the compound record lists Drug uptake as 0.151

Briefly, Drug uptake measured for `Cn1cc(-c2ccncc2)c(-c2ccc(OCc3cc(O[11CH3])c4ccccc4n3)cc2)n1` : 0.258

Kindly note the recorded Drug uptake for `Cn1ncc(-c2ccncc2)c1-c1ccc(OCc2cc(O[11CH3])c3ccccc3n2)cc1` , which is 0.146

* * *

Tested on: Cerebellum
Assay: Biodistribution in Sprague-Dawley rat cerebellum at 14.8 to 18.5 MBq, iv measured at 60 mins post-injection by gamma counting analysis
Type: ADME, organism-based
Details: in vivo, 1 h
assay.metric: Drug uptake
State the value, then name its unit.

Summary for this compound, `Cn1ncc(-c2ccncc2)c1-c1ccc(OCc2cc(O[11CH3])c3ccccc3n2)cc1` : Drug uptake is 0.015 % ID/g

Note to self: Drug uptake recorded for `Cn1cc(-c2ccncc2)c(-c2ccc(OCc3nc4ccccc4cc3O[11CH3])cc2)n1` was 0.064 % ID/g

The measured Drug uptake associated with `Cn1cc(-c2ccncc2)c(-c2ccc(OCc3cc(O[11CH3])c4ccccc4n3)cc2)n1` reads 0.046 % ID/g

Drug uptake for `Cn1cc(-c2ccncc2)c(-c2ccc(OCc3ccc4cc(O[11CH3])ccc4n3)cc2)n1` is 0.066 % ID/g

* * *

So I've got a bunch of molecules here, and I need their Drug uptake values.
Test system: Striatum
Experiment: Biodistribution in Sprague-Dawley rat striatum at 14.8 to 18.5 MBq, iv measured at 5 mins post-injection by gamma counting analysis
Format: ADME, organism-based
Conditions: in vivo
The number alone won't do; follow it with the unit.

So, `Cn1cc(-c2ccncc2)c(-c2ccc(OCc3ccc4cc(O[11CH3])ccc4n3)cc2)n1` ? Its Drug uptake was 0.293 % ID/g

Lookup result for `Cn1cc(-c2ccncc2)c(-c2ccc(OCc3cc(O[11CH3])c4ccccc4n3)cc2)n1` ; measured Drug uptake: 0.352 % ID/g

Item: `Cn1ncc(-c2ccncc2)c1-c1ccc(OCc2cc(O[11CH3])c3ccccc3n2)cc1` | Drug uptake: 0.151 % ID/g

Record summary for `Cn1cc(-c2ccncc2)c(-c2ccc(OCc3nc4ccccc4cc3O[11CH3])cc2)n1` : reported Drug uptake = 0.488 % ID/g

* * *

Test system: Lung
Assay: Biodistribution in Sprague-Dawley rat lung at 14.8 to 18.5 MBq, iv measured at 30 mins post-injection by gamma counting analysis
Assay type: ADME, organism-based
Details: in vivo, 0.5 h
assay.metric: Drug uptake (% ID/g)
Dear colleague, please return just the value in % ID/g, with no unit written.

For record `Cn1cc(-c2ccncc2)c(-c2ccc(OCc3ccc4cc(O[11CH3])ccc4n3)cc2)n1` the listed Drug uptake is 0.389

Value of measured Drug uptake for the entry `Cn1cc(-c2ccncc2)c(-c2ccc(OCc3nc4ccccc4cc3O[11CH3])cc2)n1` : 0.408

Drug uptake reading for `Cn1ncc(-c2ccncc2)c1-c1ccc(OCc2cc(O[11CH3])c3ccccc3n2)cc1` : 0.156

For reference, reported Drug uptake for `Cn1cc(-c2ccncc2)c(-c2ccc(OCc3cc(O[11CH3])c4ccccc4n3)cc2)n1` stands at 0.233
